Origin of measurements: paper PMC10165889

Known PAMPA of a selection of compounds
# Settings: incubation 0.5h, UV; table

[
  {
    "Compound": "COC(=O)C(Cc1c[nH]cn1)NC(=O)C[C@@H]1N=C(c2ccc(Cl)cc2)c2c(sc(C)c2C)-n2c(C)nnc21 (stereo partly shown)",
    "PAMPA": "0.0 10^−6cm/s"
  },
  {
    "Compound": "Cc1sc2c(c1C)C(c1ccc(Cl)cc1)=N[C@@H](CC(=O)NCc1cn(C)nn1)c1nnc(C)n1-2",
    "PAMPA": "14.0 10^−6cm/s"
  },
  {
    "Compound": "Cc1sc2c(c1C)C(c1ccc(Cl)cc1)=N[C@@H](CC(=O)NCc1cn(C)cn1)c1nnc(C)n1-2",
    "PAMPA": "0.0 10^−6cm/s"
  }
]

Okay, now this compound:
// query Any idea what its PAMPA is? The compound is Cc1sc2c(c1C)C(c1ccc(Cl)cc1)=N[C@@H](CC(=O)NCC(=O)O)c1nnc(C)n1-2
// result 0.5 10^−6cm/s
